# Test system: C2A
# Experiment summary: qHTS profiling for inhibitors of Plasmodium falciparum proliferation (AID 504749); also: nearly all actives have a fitted effect of over 60% in size
# Study conditions: P. falciparum in erythrocytes, SYBR Green DNA, 72 h; series mostly up to 28.7 µM
Inconclusive results are not listed. Active and inactive are the calls of the source. Calls follow the shape of the dose curve; as a rule, active = well fitted inhibition curve with a large enough effect; inconclusive = small, poorly fitted or top-dose-only effect; inactive = flat fitted curve, though single readings scatter.
The reply should be one of these categories: 1.0 = active, 0.0 = inactive

-- ask Fill in: this test's call for `CCCCCCCCCCCC[n+]1ccc2ccccc2c1` is ___
-- reply 1.0

-- ask Fill in: this test's call for `CC1(C)S[C@@H]2[C@H](NC(=O)[C@@H](NC(=O)N3CCNC3=O)c3ccccc3)C(=O)N2[C@H]1C(=O)O` is ___
-- reply 0.0

-- ask Fill in: this test's call for `CCCCCCCC(=O)O` is ___
-- reply 0.0

-- ask Fill in: this test's call for `CCCCC/C=C\C/C=C\CCCCCCCC(=O)O` is ___
-- reply 0.0

-- ask Fill in: this test's call for Nc1c(Br)cc(Br)cc1CNC1CCC(O)CC1 (stereo unspecified) is ___
-- reply 0.0

-- ask Fill in: this test's call for `O=C(O)CCC(=O)C(=O)O` is ___
-- reply 0.0

-- ask Fill in: this test's call for C[C@@H]1CCC2[C@@H](C)[C@@H](O)O[C@@H]3O[C@@]4(C)CC[C@@H]1[C@@]23OO4 (stereo partly specified) is ___
-- reply 1.0

-- ask Fill in: this test's call for `COC(F)(F)C(Cl)Cl` is ___
-- reply 0.0

-- ask Fill in: this test's call for `O=S(=O)(O)O` is ___
-- reply 0.0

-- ask Fill in: this test's call for `O=C1CSC2(CCN(CCCN3c4ccccc4Sc4ccc(Cl)cc43)CC2)N1` is ___
-- reply 0.0

-- ask Fill in: this test's call for CC(=O)Oc1c(C)cc(OCC(O)CNC(C)C)c(C)c1C (stereo unspecified) is ___
-- reply 0.0

-- ask Fill in: this test's call for `CC[N+](C)(C)Cc1ccccc1Br` is ___
-- reply 0.0

-- ask Fill in: this test's call for `CC(=O)Oc1cc(C)c(OC(C)=O)c2ccccc12` is ___
-- reply 1.0

-- ask Fill in: this test's call for `CCCCCCOc1ccc(C(=N)N(CCCC)CCCC)c2ccccc12` is ___
-- reply 1.0

-- ask Fill in: this test's call for COC(C(=O)C(O)C(C)O)C1Cc2cc3cc(OC4CC(OC5CC(O)C(O)C(C)O5)C(O)C(C)O4)c(C)c(O)c3c(O)c2C(=O)C1OC1CC(OC2CC(OC3CC(C)(O)C(O)C(C)O3)C(O)C(C)O2)C(O)C(C)O1 (stereo unspecified) is ___
-- reply 1.0

-- ask Fill in: this test's call for `CC1=C(/C=C/C(C)=C/C=C/C(C)=C/C=C/C=C(C)/C=C/C=C(C)/C=C/C2=C(C)CCCC2(C)C)C(C)(C)CCC1` is ___
-- reply 0.0

-- ask Fill in: this test's call for `COc1ccc2c3c1O[C@H]1C[C@@H](O)C=C[C@@]31CCN(C)C2` is ___
-- reply 0.0

-- ask Fill in: this test's call for CC(O)CO (stereo unspecified) is ___
-- reply 0.0

-- ask Fill in: this test's call for `Clc1cc(Cl)c(OCC#CI)cc1Cl` is ___
-- reply 1.0

-- ask Fill in: this test's call for `Cc1ccccc1` is ___
-- reply 0.0

-- ask Fill in: this test's call for `O=C1C(=O)c2ncccc2-c2cccnc21` is ___
-- reply 1.0

-- ask Fill in: this test's call for CO[C@H](C(=O)[C@@H](O)[C@@H](C)O)C1Cc2cc3cc(O[C@H]4C[C@@H](O[C@H]5C[C@@H](O)[C@H](O)[C@@H](C)O5)[C@@H](O)[C@@H](C)O4)c(C)c(O)c3c(O)c2C(=O)[C@H]1O[C@H]1C[C@@H](O[C@H]2C[C@@H](O[C@H]3C[C@](C)(O)[C@H](O)[C@@H](C)O3)[C@H](O)[C@@H](C)O2)[C@H](O)[C@@H](C)O1 (stereo partly specified) is ___
-- reply 1.0

-- ask Fill in: this test's call for `Cc1cc(C(=O)NNCc2ccccc2)no1` is ___
-- reply 0.0

-- ask Fill in: this test's call for `C#C[C@]1(O)CC[C@H]2[C@@H]3CCC4=CCCC[C@@H]4[C@H]3C(=C)C[C@@]21CC` is ___
-- reply 0.0

-- ask Fill in: this test's call for `CN=C(NC#N)Nc1ccc(C2=NNC(=O)C[C@@H]2C)cc1` is ___
-- reply 0.0

-- ask Fill in: this test's call for CC(Cc1ccc(O)c(O)c1)C(C)Cc1ccc(O)c(O)c1 (stereo unspecified) is ___
-- reply 0.0

-- ask Fill in: this test's call for `O=S(=O)(O)c1cc(O)c2c(N=Nc3ccc(Nc4ccccc4)c4c(S(=O)(=O)O)cccc34)cc(S(=O)(=O)O)cc2c1` is ___
-- reply 0.0

-- ask Fill in: this test's call for Oc1cc(O)c2c(c1)OC(c1ccc(O)c(O)c1)C(O)C2 (stereo unspecified) is ___
-- reply 0.0

-- ask Fill in: this test's call for `C=CCSSSCC=C` is ___
-- reply 0.0

-- ask Fill in: this test's call for `CCCC(=O)O[C@]1(C(=O)CCl)[C@H](C)C[C@@H]2[C@H]3CCC4=CC(=O)C=C[C@]4(C)[C@@]3(F)C(=O)C[C@@]21C` is ___
-- reply 1.0

-- ask Fill in: this test's call for CCOC(=O)C1=CC2(CC)CCCN3CCc4c(n1c1ccccc41)C32 (stereo unspecified) is ___
-- reply 1.0

-- ask Fill in: this test's call for `CCNC(=O)[C@@H]1CCCN1C(=O)[C@H](CCCN=C(N)N)NC(=O)[C@H](CC(C)C)NC(=O)[C@@H](Cc1c[nH]c2ccccc12)NC(=O)[C@H](Cc1ccc(O)cc1)NC(=O)[C@H](CO)NC(=O)[C@H](Cc1c[nH]c2ccccc12)NC(=O)[C@H](Cc1cnc[nH]1)NC(=O)[C@@H]1CCC(=O)N1` is ___
-- reply 1.0

-- ask Fill in: this test's call for `C[C@]12CCC(=O)C=C1CC[C@@H]1[C@@H]2[C@@H](O)C[C@@]2(C)[C@H]1CC[C@]2(O)C(=O)COP(=O)(O)O` is ___
-- reply 0.0

-- ask Fill in: this test's call for `Cc1cn([C@H]2C[C@H](O)[C@@H](CO)O2)c(=O)[nH]c1=O` is ___
-- reply 0.0

-- ask Fill in: this test's call for `O=CCCCC=O` is ___
-- reply 0.0

-- ask Fill in: this test's call for `O=C(O)c1cc(O)c2c(c1)[O][Bi][O]2` is ___
-- reply 0.0

-- ask Fill in: this test's call for `O=C(O)c1cc(=O)c2c3nc4ccccc4oc-3cc(=O)c2[nH]1` is ___
-- reply 0.0

-- ask Fill in: this test's call for `C#CCOc1ccc2c(C)cc(=O)oc2c1` is ___
-- reply 0.0

-- ask Fill in: this test's call for CC(C(=O)O)c1ccc(N2Cc3ccccc3C2=O)cc1 (stereo unspecified) is ___
-- reply 0.0

-- ask Fill in: this test's call for CCCCC(C)(O)C/C=C/[C@H]1[C@H](O)CC(=O)[C@@H]1CCCCCCC(=O)OC (stereo partly specified) is ___
-- reply 0.0

-- ask Fill in: this test's call for `Nc1ncnc2c1ncn2[C@@H]1O[C@H](COP(=O)(O)OP(=O)(O)OP(=O)(O)O)[C@@H](O)[C@H]1O` is ___
-- reply 0.0

----------
# Tested on: CP237
# Experiment summary: qHTS profiling for inhibitors of Plasmodium falciparum proliferation (AID 504749); also: nearly all actives have a fitted effect of over 60% in size
# Study conditions: P. falciparum in erythrocytes, SYBR Green DNA, 72 h; series mostly up to 28.7 µM
Inconclusive results are not listed. Calls of active or inactive are those of the source. The call rests on the fitted dose curve; in most records, active means well fitted inhibition curve with a large enough effect; inconclusive means small, poorly fitted or top-dose-only effect; inactive means flat fitted curve, though single readings scatter.
The reply should be one of these categories: active, inactive

-- ask Fill in: this test's call for `CC1(C)S[C@@H]2[C@H](NC(=O)[C@@H](NC(=O)N3CCNC3=O)c3ccccc3)C(=O)N2[C@H]1C(=O)O` is ___
-- reply inactive

-- ask Fill in: this test's call for `O=C(O)c1cc(O)c2c(c1)[O][Bi][O]2` is ___
-- reply inactive

-- ask Fill in: this test's call for Cc1ccccc1OCC(O)CNCCOc1ccc(C(N)=O)cc1 (centres undefined) is ___
-- reply inactive

-- ask Fill in: this test's call for `CC(C)(C)C(=O)OCOC(=O)[C@@H]1N2C(=O)[C@@H](N=CN3CCCCCC3)[C@H]2SC1(C)C` is ___
-- reply inactive

-- ask Fill in: this test's call for CC1(C)C(C=C(Cl)Cl)C1C(=O)OCc1cccc(Oc2ccccc2)c1 (centres undefined) is ___
-- reply inactive

-- ask Fill in: this test's call for `O=C(O)CN(CCN(CC(=O)O)CC(=O)O)CC(=O)O` is ___
-- reply inactive

-- ask Fill in: this test's call for CC(C(=O)O)c1ccc(N2Cc3ccccc3C2=O)cc1 (centres undefined) is ___
-- reply inactive

-- ask Fill in: this test's call for `Nc1ncnc2c1ncn2[C@@H]1O[C@H](COP(=O)(O)OP(=O)(O)OP(=O)(O)O)[C@@H](O)[C@H]1O` is ___
-- reply inactive

-- ask Fill in: this test's call for `Cc1c(C)c2c(c(C)c1O)CC[C@@](C)(CCC[C@H](C)CCC[C@H](C)CCCC(C)C)O2` is ___
-- reply inactive

-- ask Fill in: this test's call for `CCNC(=O)[C@@H]1CCCN1C(=O)[C@H](CCCN=C(N)N)NC(=O)[C@H](CC(C)C)NC(=O)[C@@H](Cc1c[nH]c2ccccc12)NC(=O)[C@H](Cc1ccc(O)cc1)NC(=O)[C@H](CO)NC(=O)[C@H](Cc1c[nH]c2ccccc12)NC(=O)[C@H](Cc1cnc[nH]1)NC(=O)[C@@H]1CCC(=O)N1` is ___
-- reply active

-- ask Fill in: this test's call for `Cc1cc(C(=O)NNCc2ccccc2)no1` is ___
-- reply inactive

-- ask Fill in: this test's call for `O=C1C(=O)c2ncccc2-c2cccnc21` is ___
-- reply active

-- ask Fill in: this test's call for `C#CCOc1ccc2c(C)cc(=O)oc2c1` is ___
-- reply inactive

-- ask Fill in: this test's call for `CCCCC(=O)O[C@]1(C(=O)CO)[C@H](C)C[C@H]2[C@@H]3CCC4=CC(=O)C=C[C@]4(C)[C@@]3(F)[C@@H](O)C[C@@]21C` is ___
-- reply inactive

-- ask Fill in: this test's call for C[C@@H]1CCC2[C@@H](C)[C@@H](O)O[C@@H]3O[C@@]4(C)CC[C@@H]1[C@@]23OO4 (some centres undefined) is ___
-- reply active

-- ask Fill in: this test's call for CC1=CCC(C(C)(C)O)CC1 (centres undefined) is ___
-- reply inactive

-- ask Fill in: this test's call for `CC[N+](C)(C)Cc1ccccc1Br` is ___
-- reply inactive

-- ask Fill in: this test's call for NC(=O)c1ncn(C2OC(CO)C(O)C2O)n1 (centres undefined) is ___
-- reply inactive

-- ask Fill in: this test's call for CCCCC(C)(O)C/C=C/[C@H]1[C@H](O)CC(=O)[C@@H]1CCCCCCC(=O)OC (some centres undefined) is ___
-- reply inactive
